# assay info: xn = mol fraction of the nth substance listed, in the solute-free solvent
# condition parameters: 298.15 K; x2 = 0.2307
property measured: solubility (g/100 g solution)

The following compounds have reported results that may help.
compound="CS(=O)(=O)c1ccc(C(O)C(CF)NC(=O)C(Cl)Cl)cc1 (stereo not given) + CC(C)O + O" value_observed=0.717
compound="COC(=O)C1=C(C)NC(C)=C(C(=O)OCC(C)C)C1c1ccccc1[N+](=O)[O-] (stereo not given) + CCCO + O" value_observed=3.7

[I] O=c1[nH]cc(F)c(=O)[nH]1 + CCCO + C1CCOC1
[II] CC(=O)Nc1ccc(OC(=O)c2ccccc2OC(C)=O)cc1 + CC(C)O + O
Prompt: Identify the entry with the smaller solubility (g/100 g solution): I or II . Label of pick, please.
Response: II
(II: 0.124, I: 0.226)

###

# assay info: xn = mol fraction of the nth substance listed, in the solute-free solvent
# condition parameters: 313.15 K; x2 = 0.1139
property measured: solubility (g/100 g solution)

Please review the entries below; each comes with its answer.
compound="COC(=O)C1=C(C)NC(C)=C(C(=O)OCC(C)C)C1c1ccccc1[N+](=O)[O-] (centres undefined) + CCCO + O" value_observed=3.63
compound="O=[N+]([O-])c1cc[nH]n1 + CCCO + O" value_observed=2.31

[P] CC(=O)Nc1ccc(OC(=O)c2ccccc2OC(C)=O)cc1 + CC(C)O + O
[Q] CS(=O)(=O)c1ccc(C(O)C(CF)NC(=O)C(Cl)Cl)cc1 (centres undefined) + CC(C)O + O
Prompt: Please tell me which of the two, P or Q , has the higher reported solubility (g/100 g solution) value. // return label of chosen record
Response: Q
(Q: 1.06, P: 0.126)

###

# assay info: xn = mol fraction of the nth substance listed, in the solute-free solvent
# condition parameters: 308.15 K; x2 = 0.5454
property measured: solubility (g/100 g solution)

molecule="CC(=O)Nc1ccc(OC(=O)c2ccccc2OC(C)=O)cc1 + CC(C)O + O" property_measured="solubility (g/100 g solution)" value_observed=0.381
molecule="O=[N+]([O-])c1cc[nH]n1 + CCCO + O" property_measured="solubility (g/100 g solution)" value_observed=5.08
molecule="COC(=O)C1=C(C)NC(C)=C(C(=O)OCC(C)C)C1c1ccccc1[N+](=O)[O-] (stereo not given) + CCCO + O" property_measured="solubility (g/100 g solution)" value_observed=7.23

[1] COC(=O)C1=C(C)NC(C)=C(C(=O)OCC(C)C)C1c1ccccc1[N+](=O)[O-] (stereo not given) + CC(C)O + O
[2] CS(=O)(=O)c1ccc(C(O)C(CF)NC(=O)C(Cl)Cl)cc1 (stereo not given) + CC(C)O + O
Prompt: Please indicate which entry, 1 or 2 , has the lower recorded solubility (g/100 g solution) value. API: response body contains the label of the selected item.
Response: 2
(2: 1.47, 1: 8.34)

###

# assay info: xn = mol fraction of the nth substance listed, in the solute-free solvent
# condition parameters: 318.15 K; x2 = 0.7
property measured: solubility (g/100 g solution)

compound="O=c1ccc2ccccc2o1 + CO + O" value_observed=73.3
compound="CN1CCN(C(=O)OC2c3nccnc3C(=O)N2c2ccc(Cl)cn2)CC1 (stereo not given) + CCO + O" value_observed=2.31
compound="CN1CCN(C(=O)OC2c3nccnc3C(=O)N2c2ccc(Cl)cn2)CC1 (stereo not given) + CC(C)=O + O" value_observed=2.53

[a] CCCCN1CCCCC1C(=O)Nc1c(C)cccc1C.Cl.O (stereo not given) + CO + O
[b] CCOC(=O)C1=CC2(CC)CCCN3CCc4c(n1c1ccccc41)C32 (stereo not given) + CCO + O
Prompt: When a and b are compared, which has the higher number for solubility (g/100 g solution)? Pick one and reply with its label.
Response: a
